Origin of the recorded values: ChEMBL document CHEMBL4513216

# assay method text: Toxicity liver stage against HepG2, at 10uM
# Format: cell-based
# Set-up: test concentration 10 uM, cell line HepG2-A16-CD81EGFP
# experimental setup: human, HepG2-A16-CD81EGFP cells; read-out: INHIBITION
property label: cytotoxicity at 10 µM (%)
Answers are plain numbers, in %.

These solved cases illustrate the format of a correct answer.
>>> readout_number("CCn1cnnc1C1CCN(C(=O)c2ccccc2F)CC1")
-5.13
>>> readout_number("O=C(O)C1(Cc2cc(-c3ccccc3F)no2)CCOCC1")
-9.41
>>> readout_number("O=C(CNC(=O)C1CC1)NCC1CCCC1")
2.12
>>> readout_number("CCc1ccc(S(=O)(=O)Nc2cc(C(=O)O)ccc2F)s1")
-8.27

Give me cytotoxicity at 10 µM for each of these compounds, listed below.
1. CCCC(=O)N(CC)C(c1cccnc1)c1ccc2c(c1)CCO2 (configuration not stated)
2. CNc1nc(C)cc(NCc2cc(C)cc3c(C)c(C)[nH]c23)n1
3. O=C(O)C1(Cc2ccccc2Cl)CCN(c2ncccn2)CC1
4. CC(C)(C)n1ncc2c(=O)[nH]c(N3CCN(CCO)CC3)nc21

[0.217, -30.2, 7.04, -13.3]

Give me cytotoxicity at 10 µM for each of these compounds, listed below.
1. CCc1noc(CN2CCN(C(=O)COC)CC2)n1
2. CN1CCN([C@@H]2CCN(Cc3ccc4cc(F)ccc4n3)C[C@H]2O)CC1
3. CN(Cc1ccc(OC(F)F)cc1)C(=O)CS(=O)(=O)c1ccc(Cl)cc1

1. -8.09
2. -4.1
3. 5.19

Need cytotoxicity at 10 µM, item CCc1nc(CN2CCCN(C(=O)c3ccco3)CC2)cs1 5.03

###

# assay method text: Toxicity liver stage against HepG2, at 10uM
# Assay type: cell-based
# Parameters: test concentration 10 uM, cell line HepG2-A16-CD81EGFP
# experimental setup: human, HepG2-A16-CD81EGFP cells; read-out: INHIBITION
property label: cytotoxicity at 10 µM (%)
Answers are plain numbers, in %.

>>> readout_number("COCCNc1nc(NCCc2ccccc2)nc2nccnc12")
9.97
>>> readout_number("CCn1c(CN(C)C)nnc1C1CCN(c2ccnc(C)c2)CC1")
14.9
>>> readout_number("CC(=O)N(Cc1ccsc1)c1ccccc1")
-1.74
>>> readout_number("NS(=O)(=O)CCN1CCN(c2ccccc2O)CC1")
9.1
>>> readout_number("Cn1cc(C2COC3(CCN(C(=O)c4ccn(C)n4)CC3)C2)cn1 (configuration not stated)")
-66.5
>>> readout_number("CN(Cc1cncnc1)[C@H]1CN(C(=O)c2ccc[nH]2)[C@@H]2CCCO[C@@H]21")
-107
>>> readout_number("c1cnc(NC[C@H]2OC[C@@H]3CCN(Cc4ccncc4)C[C@@H]32)nc1")
-4.61
>>> readout_number("O=C(c1ccncc1)N1CCC2(CC1)CCN(C(=O)c1cccnc1)C2")
-93

Give me cytotoxicity at 10 µM for each of these compounds, listed below.
1. Cc1ccc(C2CSCCN2C(=O)c2cccs2)o1 (configuration not stated)
2. Cn1nccc1-c1nnn2c1COCC(CNC1CCOCC1)C2 (configuration not stated)
3. Cc1ccccc1-c1noc(CNc2ccc(F)cc2OCCO)n1
4. Cc1ccc(C(=O)N2CCC3(CC(N(C)c4ccncn4)C3)C2)cn1 (configuration not stated)
5. N#CCCn1cnc2c(Br)cccc2c1=O
6. COc1cccc(Cl)c1C(C(=O)O)N(C)Cc1c(C)n[nH]c1C (configuration not stated)
7. O=C([C@H]1CN(Cc2ccccc2F)C[C@H]2OCC[C@@H]12)N1CCCO1
8. Cn1cc(N2CC3(CCN(Cc4nccs4)CC3)OCC2=O)cn1

1. 3.82
2. -103
3. -41.7
4. -6.11
5. 4.65
6. -1.89
7. 13
8. 5.86

Give me cytotoxicity at 10 µM for each of these compounds, listed below.
1. CCO[C@H]1COC[C@@H]1NC(=O)c1c[nH]nc1C1CCCCC1
2. Cc1ccccc1SCC(=O)Nn1cnnc1
3. CCCn1nccc1NC(=O)CN1CCc2c(nc(C(C)C)n2C)C1
4. CC(C)C(=O)N1CCN(C(=O)c2cc(Cl)no2)[C@H]2CS(=O)(=O)C[C@H]21
5. CN(CCCN1CCCC1)[C@@H]1c2ccccc2C2(CCNCC2)[C@H]1O
6. Cc1ccc(C(=O)N2CCc3ncccc3C2)cc1N1CCNC1=O
7. COCc1ccccc1CNC(=O)CNc1ccccc1C(C)=O

[-3.13, -43.1, 4.02, 8.48, -3.99, -4.33, 3.49]

Give me cytotoxicity at 10 µM for each of these compounds, listed below.
1. c1ccc2oc(CN3CCCC3Cn3cncn3)nc2c1 (configuration not stated)
2. CN(Cc1nnc(C2CC2)o1)C1CCCN(c2cccnn2)C1 (configuration not stated)
3. CCn1cc(CN2CCC(c3ccncc3)CC2)cc1C#N
4. COc1c(C2CCCN2CC(=O)NCc2ccccn2)c(C)nn1C (configuration not stated)
5. Cc1nc(NC2CCCC2)cc(C2CCN2C(=O)c2ccccc2)n1 (configuration not stated)
6. CC(c1nc(C2CC2)no1)N1CCN(Cc2noc(C3CC3)n2)CC1 (configuration not stated)

1. -17.2
2. -10.7
3. -5.38
4. -0.671
5. -6.31
6. 4.63

Give me cytotoxicity at 10 µM for each of these compounds, listed below.
1. Cc1nn(C)c2ncnc(N3CCCC(OCc4ccccn4)C3)c12 (configuration not stated)
2. c1csc(CN2C[C@H](OCC3CC3)[C@H]3COC[C@H]32)n1
3. O=C(c1ccsc1)N1C[C@@H](CN2CCCC2)[C@@H](CO)C1
4. CN(CCc1ccccn1)C(=O)C(O)c1cc(Cl)cc(Cl)c1 (configuration not stated)

7.96
2.57
15.2
-5.68

Give me cytotoxicity at 10 µM for each of these compounds, listed below.
1. COc1ccc(-c2cc3nc(CCNC(=O)CN(C)C)nn3cn2)cc1
2. CCN(C(=O)c1nc2c(s1)CCCN2Cc1ccccc1)C(C)C
3. NCc1cn(CC2CCCN(C(=O)NCc3ccc(Cl)cc3)C2)nn1 (configuration not stated)
4. COCCN(C)CCN1CC2(CCN(C3CCSC3)CC2)OC1=O (configuration not stated)
5. COc1ccc(CC(=O)N2CCCCC2Cn2cccn2)cc1 (configuration not stated)
6. COc1ccc(Cn2cc(C(=O)N(C)Cc3cnccn3)nn2)cc1

[1.98, 14.2, -22, -2.28, -11.3, 9.81]

Give me cytotoxicity at 10 µM for each of these compounds, listed below.
1. COCc1nc(C(=O)NS(=O)(=O)c2cc(C)ccc2C)cs1
2. COc1ccc2nnc(CCCC(=O)NCc3ccccc3)n2n1
3. CCN(CC(=O)NC)C(=O)Cc1csc(C(C)C)n1

[-4.04, -4.1, -3.61]

Give me cytotoxicity at 10 µM for each of these compounds, listed below.
1. O=C(Cn1nnc(-c2ccc(F)cc2)n1)N1CCOCC(O)C1 (configuration not stated)
2. CC(C)(C)c1n[nH]c(C2CN(C(=O)Cn3ccccc3=O)CCO2)n1 (configuration not stated)
3. CC(C)n1cc(CN2CCCN(C(=O)c3ccc[nH]3)CC2)cn1
4. COc1coc(CN2CCCC(CCc3ccccc3C)C2)cc1=O (configuration not stated)

1: 10.9; 2: -1.22; 3: 3.59; 4: -0.931

Need cytotoxicity at 10 µM, item CSCc1noc(C2CCC(=O)N(CCc3ccccc3)C2)n1 (configuration not stated) -6.72
